Where a name gives a salt, the structure may show the parent alone.
readout-kind: melting point

1) CCNC(=O)c1ccc2c(c1)NC(=O)/C2=C(\Nc1ccc(N(C)C(=O)CN(C)C)cc1)c1ccccc1 ... 130 to 134 °C
2) COC(=O)c1ccc2c(c1)NC(=O)/C2=C(\Nc1ccc(CCN(C)C)cc1)c1cccc(CCC(=O)O)c1 ... 248 to 255 °C
3) CNCc1ccc(N/C(=C2\C(=O)Nc3cc(C(=O)O)ccc32)c2ccccc2)cc1 ... 287 °C
4) COC(=O)c1ccc2c(c1)NC(=O)/C2=C\Nc1ccc(N(C)C(=O)CN(C)C)cc1 ... 250 to 255 °C
5) NC(CCO)(CCO)c1ccc(N/C(=C2\C(=O)Nc3cc(C(=O)O)ccc32)c2ccccc2)cc1 (as salt: Na) ... 256 to 257 °C
6) CCNC(=O)c1ccc2c(c1)NC(=O)/C2=C(\Nc1ccc(C(=O)N2C[C@@H](C)N[C@@H](C)C2)cc1)c1ccccc1 ... 217 to 220 °C
7) COC(=O)c1ccc2c(c1)NC(=O)/C2=C(\Nc1ccc(N(C)C(=O)CN)cc1)c1ccccc1 ... 221 °C
8) CCNC(=O)c1ccc2c(c1)NC(=O)/C2=C(\Nc1ccc(C(=O)N2CCN(C)CC2)cc1)c1ccccc1 ... 288 to 292 °C
